CTLA4 Fold change to WT CD80 by entry:
Biological target: huCTLA4 (Homo sapiens, UniProt P16410)
Sequence (P16410 36-223): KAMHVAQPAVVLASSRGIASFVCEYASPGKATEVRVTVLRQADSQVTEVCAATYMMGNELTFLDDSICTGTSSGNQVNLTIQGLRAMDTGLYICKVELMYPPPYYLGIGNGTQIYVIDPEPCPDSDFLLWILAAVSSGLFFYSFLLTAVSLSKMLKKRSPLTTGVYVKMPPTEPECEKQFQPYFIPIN
Assay: Flow binding to CHO cells stably expressing CTLA4
Parameters: huCTLA4 and huPD-L1, full-length mammalian surface expression constructs were generated; expressed in transfected cells; host or cells: CHO cells, lentiviral transduction, sorted to >98% purity
Details: Table E10; 33.3 nM; relative to CD80 WT IgV-Fc
Write no unit; give the number alone.

[
  {
    "Molecule": "E35D/M47I/N48K/I61F (protein) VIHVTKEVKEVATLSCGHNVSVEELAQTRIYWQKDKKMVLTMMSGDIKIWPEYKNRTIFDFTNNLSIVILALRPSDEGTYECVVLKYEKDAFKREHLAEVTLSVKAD",
    "CTLA4 Fold change to WT CD80": 13.5
  },
  {
    "Molecule": "Q27L/E35D/M47V/I61V/L85M (protein) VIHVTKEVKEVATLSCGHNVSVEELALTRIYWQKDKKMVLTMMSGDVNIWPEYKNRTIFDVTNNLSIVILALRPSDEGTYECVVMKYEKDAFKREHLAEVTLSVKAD",
    "CTLA4 Fold change to WT CD80": 14.6
  },
  {
    "Molecule": "E35D/D46E/M47I (protein) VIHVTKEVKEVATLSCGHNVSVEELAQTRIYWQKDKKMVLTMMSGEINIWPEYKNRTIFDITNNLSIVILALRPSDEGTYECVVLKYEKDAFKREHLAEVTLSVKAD",
    "CTLA4 Fold change to WT CD80": 11.2
  }
]

*Q* What CTLA4 Fold change to WT CD80 value was documented for this molecule, D46V/M47I/A71G (protein) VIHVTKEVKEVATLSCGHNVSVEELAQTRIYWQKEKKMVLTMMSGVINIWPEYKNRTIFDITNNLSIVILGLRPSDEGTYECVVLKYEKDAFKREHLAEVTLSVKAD ?
*A* 14.8

*Q* Reported CTLA4 Fold change to WT CD80, molecule M47I/A71G (protein) VIHVTKEVKEVATLSCGHNVSVEELAQTRIYWQKEKKMVLTMMSGDINIWPEYKNRTIFDITNNLSIVILGLRPSDEGTYECVVLKYEKDAFKREHLAEVTLSVKAD : ____
*A* 14.5

*Q* # lookup: CTLA4 Fold change to WT CD80 of H18Y/E35D/M47L/A71G/A91S (protein) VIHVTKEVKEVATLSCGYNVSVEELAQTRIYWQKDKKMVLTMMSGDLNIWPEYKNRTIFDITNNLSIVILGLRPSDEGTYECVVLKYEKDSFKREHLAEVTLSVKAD
*A* 12.6

*Q* Endpoint output: CTLA4 Fold change to WT CD80 of E35D/T41S/N48T (protein) VIHVTKEVKEVATLSCGHNVSVEELAQTRIYWQKDKKMVLSMMSGDMTIWPEYKNRTIFDITNNLSIVILALRPSDEGTYECVVLKYEKDAFKREHLAEVTLSVKAD . Value?
*A* 15.8

*Q* Consider the molecule E35D/M47L/A71G/L85M (protein) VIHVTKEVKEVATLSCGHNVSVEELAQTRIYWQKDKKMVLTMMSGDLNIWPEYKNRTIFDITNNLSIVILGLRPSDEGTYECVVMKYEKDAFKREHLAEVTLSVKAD and give its measured CTLA4 Fold change to WT CD80.
*A* 8.7
